I'd be grateful if you could share measured Total impurities for these entries.
protocol.notes: Influencing factor experiment (stability under high temperature, high humidity, light)
Assay type: physicochemical
test.parameters: Light (7000 lux, open), 7d
Structures can show the parent of a compound that is named as a salt.
Enter your answer as a number in %; do not include the unit.

Input line: For the molecule shown here, COc1ccc(Cl)cc1-c1cc(C)ncc1C(=O)Nc1nc2ncc(-c3ccc(C#N)cc3)nc2s1 [Crystal form A] , give the reported Total impurities.
Output line: 0.89

Input line: For the molecule shown here, COc1ccc(Cl)cc1-c1cc(C)ncc1C(=O)Nc1nc2ncc(-c3ccc(C#N)cc3)nc2s1 [Crystal form C] , give the reported Total impurities.
Output line: 1.71

Input line: For the molecule shown here, COc1ccc(Cl)cc1-c1cc(C)ncc1C(=O)Nc1nc2ncc(-c3ccc(C#N)cc3)nc2s1 [Crystal form E] , give the reported Total impurities.
Output line: 0.76

Input line: For the molecule shown here, COc1ccc(Cl)cc1-c1cc(C)ncc1C(=O)Nc1nc2ncc(-c3ccc(C#N)cc3)nc2s1 [Amorphous form of sodium salt of compound of formula I] , give the reported Total impurities.
Output line: 2.43

Input line: For the molecule shown here, COc1ccc(Cl)cc1-c1cc(C)ncc1C(=O)Nc1nc2ncc(-c3ccc(C#N)cc3)nc2s1 [Crystal form B] , give the reported Total impurities.
Output line: 1.16
